B1: Transcription elongation factor A N-terminal and central domain-containing protein, residues 30 to 77; numbered along this chain, Q8N8B7 (parent)
chain: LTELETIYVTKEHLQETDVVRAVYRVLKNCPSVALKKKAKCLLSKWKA

variants of: B1; assay: abundance fitness (aPCA) (normalised: wild type 0, dead -1); higher = more abundant; growth selection in yeast, the domain comes from the species named; details: Homo sapiens
READOUT TYPE: abundance fitness

1) V23W | -0.009
2) A39M | -0.016
3) K45M | -0.63
4) V33D | -0.086
5) C30Q | -0.189
6) K47N | -0.625
7) R25V | -0.849
8) V23N | -1.04
9) V9W | -0.277
10) V33E | -0.208
11) A39Y | -0.452
12) L42N | -0.871
13) Y24M | 0.315
14) Q15W | 0.069
15) V9Q | 0.265
16) E5G | -0.775
17) N29P | -0.904
18) A34N | 0.266
19) K28D | -0.789
20) K11S | -0.016
21) C30G | 0.012
22) T10C | -0.566
23) K36I | -0.152
24) K37S | -0.346
25) A48H | -0.331
26) Y24V | 0.11
27) K36C | -0.225
28) Y8A | 0.274
29) D18I | -0.263
30) K11C | -0.337
31) K28M | -0.749
32) L4C | -0.51
33) C41D | -0.182
34) K45A | -0.57
35) V9I | -0.163
36) T10W | -0.315
37) K28H | -0.435
38) C41G | 0.025
39) A22H | -0.328
40) K28F | -0.247
41) V33P | 0.129
42) L1G | 0.363
43) R21W | -0.549
44) A34I | -0.826
45) K38W | -0.252
46) K38F | -0.193
47) D18A | 0.098
48) L27N | -0.846
49) T17R | -0.099
50) K36L | -0.137
51) K47Q | -0.46
52) A34F | -0.305
53) K47F | 0.101
54) K45P | -0.667
55) L14G | 0.252
56) P31L | 0.355
57) L14K | 0.23
58) P31M | 0.457
59) T10L | -0.674
60) S32I | 0.27
61) L4S | 0.216
62) V33N | -0.279
63) L4F | -0.044
64) A39E | -0.972
65) N29M | 0.052
66) P31Q | -0.017
67) V33F | 0.427
68) H13K | 0.106
69) W46G | -1.07
70) T17F | -0.852
71) V33R | 0.155
72) Q15K | 0.209
73) L42V | -0.354
74) T2Y | -0.078
75) V9K | 0.251
76) I7N | 0.081
77) L4K | 0.272
78) Q15E | -0.016
79) T17N | 0.149
80) R21F | -0.914
81) E3H | -0.696
82) E12N | -0.34
83) V26D | -0.727
84) Y24C | -0.003
85) V9T | 0.087
86) L27K | -0.845
87) K28V | -0.142
88) V33G | 0.012
89) E5Q | -0.498
90) K47L | -0.508
91) K36Y | 0.049
